B1: CPEB3 Ribozyme (parent)
chain: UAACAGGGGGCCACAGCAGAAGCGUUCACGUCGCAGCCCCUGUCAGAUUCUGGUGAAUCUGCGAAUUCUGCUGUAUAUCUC

variants of: B1; assay: self-cleavage, relative activity (ratio to wild type); higher = more cleavage; in vitro, sequencing
READOUT_TYPE: self-cleavage

Answered cases to consult:
UAACAGGGGGCCACGGCAGAAGCGUUCACGUCGCAGCCCCGGUCAGAUUCUGGUGAAUCUGCGAAUUCUGCUGUAUAUCUC [A15G U41G] | 0.38
UAACAGGGGGCAACAGCAGAAGCGUUCACGUCGCAGCCCCUGUCGGAUUCUGGUGAAUCUGCGAAUUCUGCUGUAUAUCUC [C12A A45G] | 1.04
UAACAGGGGGCCACAGCAGAAGCGUUCACGUCGCCGCCCCAGUCAGAUUCUGGUGAAUCUGCGAAUUCUGCUGUAUAUCUC [A35C U41A] | 0.47

Let us move to another entry and its self-cleavage.
Req: # query: self-cleavage of entry UAACAGGGGGCCACAGAAGAAGCGUUCACGUCGCAGCCCCUGUCAGAUUCUGGUGAAUCUGCGAACUCUGCUGUAUAUCUC [C17A U66C]
Resp: 0.07

Origin of the recorded values: the RNAGym collection of RNA variant scans (doi:10.1093/nar/gkz1192)
